Test: qHTS assay for small molecule agonists of the antioxidant response element (ARE) signaling pathway - cell viability counter screen (AID 743203); note: nearly all actives have a fitted effect of over 55% in size
Conditions: ARE-bla HepG2 viability, CellTiter-Glo luminescence, 16 h; series mostly up to 73.3 µM
Records with an inconclusive call do not appear. Active and inactive are the calls of the source. Calls come from the whole dose curve.
// one of true = active, false = inactive, no free text

Some solved entries appear below for comparison.
| COMPOUND | ASSIGNED LABEL |
| --- | --- |
| C[C@H]1O[C@@H](O[C@H]2CC[C@@]3(C)[C@H](CC[C@@H]4[C@@H]3C[C@@H](O)[C@]3(C)[C@@H](C5=CC(=O)OC5)CC[C@]43O)C2)C[C@H](O)[C@@H]1O[C@H]1C[C@H](O)[C@H](O[C@H]2C[C@H](O)[C@H](O[C@@H]3O[C@H](CO)[C@@H](O)[C@H](O)[C@H]3O)[C@@H](C)O2)[C@@H](C)O1 | true |
| C=C1C(CCl)(CCl)C2(Cl)C(Cl)C(Cl)C1(Cl)C2(Cl)Cl (stereo not drawn) | true |

Query: Test call, this compound: CCCCCCCCCCCCCCCCC(C(=O)O)C(O)(CC(=O)O)C(=O)O (stereo not drawn)
Result: true

Query: Test call, this compound: Cc1cc(Br)ccc1NC(=O)CCl
Result: true

Query: Test call, this compound: O=C1OC(=O)c2cc(-c3ccc4c(c3)C(=O)OC4=O)ccc21
Result: false

Query: Test call, this compound: COc1c(Br)cc(Br)c(C)c1Br
Result: false

Query: Test call, this compound: CN(C)CCOc1ccc(/C(=C(/CCCl)c2ccccc2)c2ccccc2)cc1
Result: true

Query: Test call, this compound: COc1cc(/C=C/C(=O)CC(=O)/C=C/c2ccc(O)c(OC)c2)ccc1O
Result: true

====

Assay: qHTS RealTime-Glo MT Cell Viability Assay in HepG2 cells - 8 hour (AID 1224873); note: nearly all actives have a fitted effect of over 55% in size
Conditions: RealTime-Glo luminescence; series mostly up to 76.8 µM
Records with an inconclusive call do not appear. Activity calls are given as the source filed them. Calls follow the shape of the dose curve; as a rule, active = well fitted cell-killing curve with a large enough effect in the repeat runs; inconclusive = weak or mixed curves; inactive = flat fitted curve, though single readings scatter.
// one of 1.0 (active), 0.0 (inactive), no free text

Some solved entries appear below for comparison.
| MOLECULE | ASSIGNED LABEL |
| --- | --- |
| CCCC(C)C=O (stereo not drawn) | 0.0 |
| CCCCCCCCSCc1cc(C)c(O)c(CSCCCCCCCC)c1 | 0.0 |
| CC/C=C(\C)C=O | 0.0 |
| c1ccc(-c2ccccc2-c2ccccc2)cc1 | 0.0 |
| SC1CCCCC1 | 0.0 |

Query: Test call, this molecule: O=C(CCCCCCCCc1cccnc1)N1CCC(C=C(c2ccccc2)c2ccccc2)CC1
Result: 1.0

Query: Test call, this molecule: CCN(CC)c1ccc(C=O)c(O)c1
Result: 0.0

Query: Test call, this molecule: CC1(C)[C@H](C(=O)OCc2cccc(Oc3ccccc3)c2)[C@@H]1C=C(Cl)Cl
Result: 0.0

Query: Test call, this molecule: O=C(NCc1ncc(C(F)(F)F)cc1Cl)c1c(Cl)cccc1Cl
Result: 0.0

====

Experiment: qHTS assay to identify small molecule antagonists of the estrogen receptor alpha (ER-alpha) signaling pathway using the BG1 cell line (AID 743080);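 note: BG1 cells stimulated with 17beta-estradiol alongside compound; % is set by controls: 0 for no effect and ±100 for the full control effect; nearly all actives have a fitted effect of over 25% in size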
Settings: BG1Luc4E2 ERE-luciferase antagonist mode, luminescence; series mostly up to 70.3 µM
Results filed as inconclusive are left out. Activity calls are given as the source filed them. Calls follow the shape of the full dose curve.
// one of 1 (active), 0 (inactive), no free text

Some solved entries appear below for comparison.
| COMPOUND | ASSIGNED LABEL |
| --- | --- |
| CS(=O)(=O)c1ccc([C@@H](O)[C@@H](COC(=O)CN)NC(=O)C(Cl)Cl)cc1 | 0 |
| CN[C@H](CC(C)C)C(=O)N[C@H]1C(=O)N[C@@H](CC(N)=O)C(=O)N[C@H]2C(=O)N[C@H]3C(=O)N[C@H](C(=O)N[C@@H](C(=O)O)c4cc(O)cc(O)c4-c4cc3ccc4O)[C@H](O)c3ccc(c(Cl)c3)Oc3cc2cc(c3O[C@@H]2O[C@H](CO)[C@@H](O)[C@H](O)[C@H]2O[C@H]2C[C@](C)(N)C(O)[C@H](C)O2)Oc2ccc(cc2Cl)[C@H]1O (some centres not stated) | 0 |
| CCCCCCCCCCCCCC(=O)OCC(COP(=O)([O-])OCC[N+](C)(C)C)OC(=O)CCCCCCCCCCCCC (configuration not stated) | 0 |
| Oc1ccc(Cl)cc1C1CCCC1 | 0 |
| O=C1C2CC3CC1CC(O)(C3)C2 | 0 |

Query: Test call, this compound: OCCCNc1ccccc1
Result: 0

Query: Test call, this compound: OCl
Result: 0

Query: Test call, this compound: CCC[C@@H]1C[C@@H](C(=O)N[C@@H]([C@H]2O[C@H](SC)[C@H](OP(=O)(O)O)[C@@H](O)[C@H]2O)[C@H](C)Cl)N(C)C1
Result: 0

Query: Test call, this compound: CC(C)CCC[C@@H](C)[C@H]1CC[C@H]2[C@@H]3CC=C4C[C@@H](O)CC[C@]4(C)[C@H]3CC[C@]12C
Result: 0

====

Target: Estrogen receptor (Homo sapiens) (UniProt P03372)
Sequence (P03372 whole entry, looked up): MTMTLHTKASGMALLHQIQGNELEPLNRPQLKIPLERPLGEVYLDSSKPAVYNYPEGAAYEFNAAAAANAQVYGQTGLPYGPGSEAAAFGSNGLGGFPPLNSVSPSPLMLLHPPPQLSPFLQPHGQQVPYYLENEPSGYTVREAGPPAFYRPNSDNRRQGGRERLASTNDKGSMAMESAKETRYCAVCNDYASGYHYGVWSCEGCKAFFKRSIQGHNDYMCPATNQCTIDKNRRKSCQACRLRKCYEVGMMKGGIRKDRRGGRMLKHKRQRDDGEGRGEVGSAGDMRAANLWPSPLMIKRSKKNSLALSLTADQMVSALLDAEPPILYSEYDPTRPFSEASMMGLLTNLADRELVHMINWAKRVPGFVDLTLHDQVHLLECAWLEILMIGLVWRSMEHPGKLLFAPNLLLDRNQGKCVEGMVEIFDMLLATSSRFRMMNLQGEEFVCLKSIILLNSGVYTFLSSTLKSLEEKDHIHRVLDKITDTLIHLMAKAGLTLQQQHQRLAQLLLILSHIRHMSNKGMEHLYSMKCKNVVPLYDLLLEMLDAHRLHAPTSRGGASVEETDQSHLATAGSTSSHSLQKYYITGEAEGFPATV
Test: qHTS assay to identify small molecule antagonists of the estrogen receptor alpha (ER-alpha) signaling pathway (AID 743069); note: % is set by controls: 0 for no effect and ±100 for the full control effect
Conditions: HEK293 ER-alpha-UAS-bla, beta-lactamase ratio, antagonist mode; series mostly up to 69.4 µM
Results filed as inconclusive are left out. Activity calls are given as the source filed them. Calls follow the shape of the dose curve; as a rule, active = well fitted curve in the direction sought with a large enough effect in the signal ratio in the repeat runs (not every such curve was filed as active); inconclusive = weak or mixed curves, or effect the other way; inactive = no such curve, though single readings can be large or run the other way; the % refers to the signal ratio.
// one of active, inactive, no free text

Some solved entries appear below for comparison.
| COMPOUND | ASSIGNED LABEL |
| --- | --- |
| NC(N)=NCc1cccc(I)c1 | inactive |
| O=C1c2ccccc2CN2C(=O)c3ccccc3CN12 | inactive |

Okay, next one:
Query: Test call, this compound: COc1ccc(/C=N/NC(=O)c2ccncc2)c(C(=O)O)c1OC
Result: inactive

====

Assay: qHTS assay for small molecules that induce genotoxicity in human embryonic kidney cells expressing luciferase-tagged ATAD5 - cell viability (AID 651634); note: nearly all actives have a fitted effect of over 25% in size
Conditions: HEK293T ATAD5-luc cells viability, CellTiter-Fluor, 15.5 h; series mostly up to 83.3 µM
Inconclusive results are not listed. Activity calls are given as the source filed them. Calls follow the shape of the full dose curve.
// one of active, inactive, no free text

Some solved entries appear below for comparison.
| COMPOUND | ASSIGNED LABEL |
| --- | --- |
| COc1cc2c(c(OC)c1OC)-c1c(cc3c(c1OC)OCO3)C[C@@H](C)[C@](C)(O)C2 | inactive |
| COc1c(Br)cc(Br)c(C)c1Br | inactive |
| NC(=O)c1cc[n+](CC2=C(C(=O)O)N3C(=O)[C@@H](NC(=O)C(c4ccccc4)S(=O)(=O)[O-])[C@H]3SC2)cc1 (stereo partly drawn) | inactive |
| CC(=O)[C@]1(O)Cc2c(O)c3c(c(O)c2[C@@H](O[C@H]2C[C@H](N)[C@H](O)[C@H](C)O2)C1)C(=O)c1ccccc1C3=O | active |
| CC(Cc1ccc(O)c(O)c1)C(C)Cc1ccc(O)c(O)c1 (stereo not drawn) | inactive |

Query: Test call, this compound: CC[C@@H](C)[C@H](N)C(=O)O
Result: inactive

Query: Test call, this compound: CCc1cn([C@H]2C[C@H](O)[C@@H](CO)O2)c(=O)[nH]c1=O
Result: inactive

Query: Test call, this compound: COC1[C@@H](O[C@@H]2O[C@H](C)[C@@H](O[C@H]3C[C@@](C)(O)[C@H](OC(=O)CC(C)C)[C@H](C)O3)[C@H](N(C)C)[C@H]2O)[C@@H](CC=O)C[C@@H](C)[C@@H](O)/C=C/C=C/C[C@@H](C)OC(=O)C[C@H]1OC(C)=O (stereo partly drawn)
Result: inactive

====

Assay: qHTS assay for small molecule agonists of the p53 signaling pathway (AID 651631); note: nearly all actives have a fitted effect of over 15% in size
Conditions: HCT-116 p53RE-bla reporter, beta-lactamase FRET ratio, 16 h; series mostly up to 73.3 µM
Inconclusive results are not listed. Activity calls are given as the source filed them. The call rests on the fitted dose curve. Positions of bridges follow the written chain, without caps; N, C: chain ends. Non-standard residues stand in square brackets, D forms with d. Residues, ends and D or L forms follow the SMILES beside them. *: point of attachment. Dab(CH2SO3H) = N[C@@H](CCNCS(=O)(=O)O)C(=O)O; X3 = CC[C@@H](C)CCCCC(=O)*; Dab = NCC[C@H](N)C(=O)O
// one of active, inactive, no free text

| COMPOUND | ASSIGNED LABEL |
| --- | --- |
| C[C@H](O)CN(C)C | inactive |
| O=C(O)c1ccc(NC2OC[C@@H](O)[C@H](O)[C@H]2O)cc1 (stereo not given in full) | inactive |
| CC(C)OC(=O)Nc1ccc2nc(-c3cscn3)[nH]c2c1 | active |
| CCOC(=O)[C@H](CCc1ccccc1)N[C@@H](C)C(=O)N1[C@H](C(=O)O)C[C@H]2CCCC[C@@H]21 | inactive |
| CC[C@@H](C)CCCCC(=O)N[C@@H](CCNCS(=O)(=O)O)C(=O)N[C@H](C(=O)N[C@@H](CCNCS(=O)(=O)O)C(=O)N[C@H]1CCNC(=O)[C@H]([C@@H](C)O)NC(=O)[C@H](CCNCS(=O)(=O)O)NC(=O)[C@H](CCNCS(=O)(=O)O)NC(=O)[C@H](CC(C)C)NC(=O)[C@@H](CC(C)C)NC(=O)[C@H](CCNCS(=O)(=O)O)NC1=O)[C@@H](C)O (X3-[Dab(CH2SO3H)]T[Dab(CH2SO3H)][Dab][Dab(CH2SO3H)][dL]L[Dab(CH2SO3H)][Dab(CH2SO3H)]T; lactam 4-C) | inactive |

Query: Test call, this compound: O=C(O)CCCC/C=C(\c1ccccc1)c1cccnc1
Result: inactive

Query: Test call, this compound: CCOc1cc(CC(=O)N[C@@H](CC(C)C)c2ccccc2N2CCCCC2)ccc1C(=O)O
Result: inactive
